# System: PC-3 prostate
# test.details: NCI-60 one-dose screen, 48 h (100 = growth as untreated, 0 = no growth, -100 = all killed)
# conditions: 10 µM
About 83,000 compounds went through this panel and 20% of them were active in at least one assay; those are over-represented in the sample as a whole.
endpoint.name: growth (%)
One number for each entry, in %.

molecule: COc1ccc(C2C=C(c3ccc(OC)c(OC)c3)N=C3SC=CN32)c(Br)c1 (centres undefined)
endpoint.name: growth
output.unit: %
value.observed: 48.9

// for each molecule below, give its growth
1. Nc1nc(SCC#CCCl)c2[nH]cnc2n1
2. C=CCOc1ccc2c(c1)CC=C1[C@@H]2CC[C@]2(C)C(=O)/C(=N/O)C[C@@H]12
3. COc1ccc(CCc2nc3cc(-c4c(C)noc4C)ccc3n2CCN2CCOCC2)cc1

1: 62.6; 2: 87; 3: 11.8

* * *

# Tested on: TK-10 renal
# test.details: NCI-60 one-dose screen, 48 h (100 = growth as untreated, 0 = no growth, -100 = all killed)
# conditions: 10 µM
About 83,000 compounds went through this panel and 20% of them were active in at least one assay; those are over-represented in the sample as a whole.
Labelling field: enter Y if recorded growth is less than 60%. Enter N if it equals or exceeds that cut-off.

Worked examples, 10 compounds total:
compound: C/C(=N\NC(N)=S)C(C)(C)O
target.or.system: TK-10 renal
class.label: N
--
compound: COc1cc(/C=C2\C(=O)Nc3cc(C)c(O)cc32)cc(OC)c1OC
target.or.system: TK-10 renal
class.label: N
--
compound: Nc1c(CNCc2nnn(Cc3ccccc3)c2N)nnn1Cc1ccccc1
target.or.system: TK-10 renal
class.label: N
--
compound: C#CCNCCN1C(=O)c2ccc3c4c(ccc(c24)C1=O)C(=O)N(CCNCC#C)C3=O
target.or.system: TK-10 renal
class.label: Y
--
compound: O=C(Nc1cccc(Cl)c1)Nc1cc2ncncc2cc1OCc1cccc(F)c1
target.or.system: TK-10 renal
class.label: Y
--
compound: Cc1ccc(C)c(S(=O)(=O)NC2c3ccccc3Oc3ccccc32)c1
target.or.system: TK-10 renal
class.label: N
--
compound: CC(=O)N(O)c1ccc(/C=C/c2ccccc2)cc1
target.or.system: TK-10 renal
class.label: Y
--
compound: COc1ccc2nc(-c3ccccc3)cc(C(C)=O)c2c1
target.or.system: TK-10 renal
class.label: N
--
compound: COc1ccc(-c2cc(/C=C3\C(=O)Nc4cc(Cl)ccc43)[nH]n2)cc1
target.or.system: TK-10 renal
class.label: Y
--
compound: CCC(CCNc1cc(OC)cc2cccnc12)CN1C(=O)c2ccccc2C1=O (stereo not drawn)
target.or.system: TK-10 renal
class.label: N

Item "COC(=O)[C@]12CC[C@@H](C)[C@H](C)[C@@H]1C1=CC[C@@H]3[C@@]4(C)C[C@@H](O)[C@H](O)[C@@](C)(CO)[C@@H]4[C@H](O)C[C@@]3(C)[C@]1(C)CC2" : growth beneath 60%, strictly?
Y

And for Cc1ccc(C2C=C(c3ccc(Cl)cc3)N=C3SC=CN32)c(Br)c1 (stereo not drawn) ?
N

* * *

# System: SF-295 CNS
# test.details: NCI-60 one-dose screen, 48 h (100 = growth as untreated, 0 = no growth, -100 = all killed)
# conditions: 10 µM
This is part of a sample that, as a whole, favours compounds with a hit. Of some 83,000 tested, about 20% had one in any assay.
// 0.0 strictly below 80% in growth; 1.0 otherwise

Test whether the molecule "CCN(CC)CCCOC(=O)Nc1ccccc1Cl" records growth of 80% or higher.
1.0

And for "O=S(=O)(NC1c2ccccc2Oc2ccccc21)c1cc(Cl)ccc1Cl" ?
1.0

And for "COc1cc(-c2cc(/C=C/C(C)=O)[nH]n2)cc(OC)c1OC" ?
0.0

* * *

# Test system: HS 578T breast
# test.details: NCI-60 one-dose screen, 48 h (100 = growth as untreated, 0 = no growth, -100 = all killed)
# conditions: 10 µM
# Method: Growth inhibition of the HS 578T human tumor cell line is measured as a screen for anti-cancer activity. Cells are grown in 96 well plates and exposed to the test compound for 48 hours. Compounds are tested at a single concentration, which is 10^-5 M for most compounds. The reported endpoint is percent growth (GI% or GIPRCNT), where numbers from 0 - 100% represent growth inhibition, and numbers from -100% - 0 represent cell death. For example, a value of 40 represents 60% growth inhibition. […]
Compounds without any hit were thinned out: in the full panel of roughly 83,000, 20% have a hit.
Task for the reader: assign each of the following molecules its reported growth.
Answers are plain numbers, in %.

// for each molecule below, give its growth
1. N#Cc1cnc2ccc(NCc3cnc[nH]3)cc2c1Nc1ccc(F)c(Cl)c1
2. COc1ccc(-c2csc(-c3cc(Cl)cc(Cl)c3Cl)n2)cc1
3. CCN(CC)CCOC(=O)c1ccc(N=Nc2ccc(O)c(OC)c2)cc1

1. 90.9
2. 80.4
3. 98.7

* * *

# System: UACC-62 melanoma
# test.details: NCI-60 one-dose screen, 48 h (100 = growth as untreated, 0 = no growth, -100 = all killed)
# conditions: 10 µM
About 83,000 compounds went through this panel and 20% of them were active in at least one assay; those are over-represented in the sample as a whole.
Labelling field: enter true (1) if recorded growth is less than 90%. Enter false (0) if it equals or exceeds that cut-off.

Item "CCOC(=O)/C(C#N)=C(/C)C1CC1" : growth beneath 90%, strictly?
false (0)

* * *

# Test system: OVCAR-4 ovarian
# test.details: NCI-60 one-dose screen, 48 h
# conditions: 10 µM
About 83,000 compounds went through this panel and 20% of them were active in at least one assay; those are over-represented in the sample as a whole. The source made the active and inactive calls. Rule for the calls: active = growth percent below 10; inactive = the rest.
Choose the fitting class; nothing outside active, inactive is accepted.

Worked examples, 8 compounds total:
compound: COc1ccc(-c2nnc(N3CCN(C(=O)CN4CCN(c5ccc(Cl)cc5)CC4)CC3)nc2-c2ccc(OC)cc2)cc1
class.label: inactive
--
compound: COc1ccc(C(=O)/C=C/c2cc(-c3ccc(OC)c(OC)c3)n[nH]2)cc1OC
class.label: active
--
compound: COc1ccc(C2C=C(c3ccc(OC)c(OC)c3)N=C3SC=CN32)c(Br)c1 (configuration not stated)
class.label: inactive
--
compound: COc1cc(CSc2nc3ccc(Cl)cc3c(=O)n2Cc2ccccc2)cc(OC)c1OC
class.label: inactive
--
compound: CCCc1c(CC)c(=N)c2ccccc2n1C
class.label: inactive
--
compound: O=CNc1c(Cl)cc2c(c1Cl)Cc1cc([N+](=O)[O-])ccc1-2
class.label: inactive
--
compound: COc1cc(Cl)cc(-c2nn(-c3cccc(NC(=O)Nc4cccc(C(F)(F)F)c4)c3)cc2-c2ccncc2)c1
class.label: active
--
compound: Cc1ccc2oc(=O)cc(/C(=C3/C=CC=N3)c3ccc[nH]3)c2c1
class.label: inactive

// next entry
Which result was noted for this compound in the test: "O=[N+]([O-])c1ccc(-c2nc(Cl)c3c(n2)CCCC3)o1"
inactive

* * *

# Tested on: 786-0 renal
# test.details: NCI-60 one-dose screen, 48 h
# conditions: 10 µM
Compounds without any hit were thinned out: in the full panel of roughly 83,000, 20% have a hit. The source made the active and inactive calls. Rule for the calls: active = growth percent below 10; inactive = the rest.
Choose the fitting class; nothing outside class 1 for active, class 0 for inactive is accepted.

Worked examples, 5 molecules total:
molecule: CCc1c(C)[nH]c(=O)c(C(N)=O)c1C#N
class.label: class 0

molecule: O=C(NNc1nc(N2CCCC2)nc(N2CCCC2)n1)c1ccccc1
class.label: class 0

molecule: O=[N+]([O-])c1ccc(-c2nc(-c3ccccc3)c(-c3ccccc3)n2-c2ccccc2)cc1
class.label: class 0

molecule: O=C(NC1CCN(Cc2ccccc2)CC1)c1cc(-c2ccncc2)nc2ccc(Cl)cc12
class.label: class 0

molecule: Cc1cc(C(C)(C)CC(C)(C)C)ccc1OCCOCC[N+](C)(C)Cc1ccccc1
class.label: class 1

// next entry
Which result was noted for this molecule in the test: "CCOC(=O)CNC(=O)Nc1ccc(Oc2ccc(NC(=O)NCC(=O)OCC)cc2)cc1"
class 0

* * *

# Tested on: IGROV1 ovarian
# test.details: NCI-60 one-dose screen, 48 h (100 = growth as untreated, 0 = no growth, -100 = all killed)
# conditions: 10 µM
About 83,000 compounds went through this panel and 20% of them were active in at least one assay; those are over-represented in the sample as a whole.
// criterion not met strictly below 50% in growth; criterion met otherwise

entry.smiles: CCN(CC)CCCOC(=O)Nc1ccccc1Cl
target.or.system: IGROV1 ovarian
class.label: criterion met
//
entry.smiles: O=c1ccc2nc(-c3ccccc3)nn(-c3ccccc3)c-2c1
target.or.system: IGROV1 ovarian
class.label: criterion not met
//
entry.smiles: CC1(C)Cc2c(cn(Cc3ccccc3)c2-c2ccccc2)-c2oncc21
target.or.system: IGROV1 ovarian
class.label: criterion met
//
entry.smiles: CCOCC[P+](c1ccccc1)(c1ccccc1)c1ccccc1
target.or.system: IGROV1 ovarian
class.label: criterion not met

// next entry
Test whether the compound "CCN1CCN(c2nc(NNC(=O)c3cccc(OC)c3)nc(N3CCN(C(c4ccccc4)c4ccccc4)CC3)n2)CC1" records growth of 50% or higher.
criterion met
